target: STING (Homo sapiens, UniProt Q86WV6, G230A/H232R/R293Q/R71H); test: STING reporter assay in THP1-Dual KO-IFNAR2 cells (2′3′cGAMP stimulation, luciferase reporter); details: 15 μM 2′3′cGAMP stimulation, 24 h, read-out: Pharmaron, THP1_IFNAR2 STING 24 h Luci Normalized: GeoMean EC50
Sequence (Q86WV6 whole entry R71H/G230A/H232R/R293Q): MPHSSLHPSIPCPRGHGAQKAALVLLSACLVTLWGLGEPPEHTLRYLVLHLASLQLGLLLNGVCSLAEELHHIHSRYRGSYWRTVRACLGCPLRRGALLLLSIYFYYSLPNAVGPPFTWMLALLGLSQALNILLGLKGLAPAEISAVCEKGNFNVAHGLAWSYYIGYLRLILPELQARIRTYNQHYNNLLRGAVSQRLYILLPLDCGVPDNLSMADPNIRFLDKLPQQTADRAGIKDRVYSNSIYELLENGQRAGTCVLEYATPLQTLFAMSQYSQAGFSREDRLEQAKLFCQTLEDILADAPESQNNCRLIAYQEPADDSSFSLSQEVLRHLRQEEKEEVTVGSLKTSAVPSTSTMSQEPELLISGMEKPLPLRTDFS
property label: EC50

>>> value("CC(=O)Nc1c[nH]c2ccc(CC(Cc3ccc(C(F)(F)F)cc3)C(=O)O)cc12 (stereo not shown)")
"5 to 100 µM"
>>> value("CC(=O)Nc1c[nH]c2ccc(CCSc3ccc(C(F)(F)F)cc3)cc12")
"0.2 to 1 µM"
>>> value("COCC1(C(=O)Nc2c[nH]c3ccc(O[C@H]4C[C@H](c5ccc(C(F)(F)F)cc5)C4)cc23)CC1")
"0.2 to 1 µM"
>>> value("O=C(Nc1c[nH]c2ccc(CC(O)Cc3ccc(C(F)(F)F)cc3)cc12)C1CC1 (stereo not shown) [Compound 240]")
"0.2 to 1 µM"
>>> value("CC(=O)Nc1c[nH]c2ccc(CNc3ccc(C(F)(F)F)nc3)cc12")
"0.2 to 1 µM"
>>> value("CC(=O)Nc1c[nH]c2ccc(OC(C)c3ccc(C(F)(F)F)cc3)cc12 (stereo not shown)")
"1 to 5 µM"
>>> value("C[C@H]1OC[C@H]1C(=O)Nc1c[nH]c2ccc(O[C@H]3C[C@H](c4ccc(C(F)(F)F)cc4)C3)cc12")
"0.2 to 1 µM"
>>> value("CC(=O)Nc1c[nH]c2ccc(O[C@@H]3C[C@@H](c4ccc(C(F)(F)F)cc4)[C@@H]3C)cc12")
"0.04 to 0.2 µM"
>>> value("C[C@H]1OC[C@H]1C(=O)Nc1c[nH]c2ccc(OCC[C@@H]3C[C@@H]4CN(CC(F)(F)F)C[C@@H]4C3)cc12")
"0.2 to 1 µM"
>>> value("CC(=O)Nc1c[nH]c2ccc(OCC3CCc4ccc(C(F)(F)F)cc4C3)cc12 (stereo not shown)")
"0.2 to 1 µM"
>>> value("CC1(C(=O)Nc2c[nH]c3ccc(OCCc4ccc(C(F)(F)F)cc4)cc23)CCOCC1")
"0.04 to 0.2 µM"
>>> value("C[C@H]1C[C@@H]1C(=O)Nc1c[nH]c2ccc(CCOc3ccc(C(F)(F)F)cc3)cc12")
"0.04 to 0.2 µM"
>>> value("CC1(C(=O)Nc2c[nH]c3ccc(OCC[C@@H]4C[C@@H]5CN(CC(F)(F)F)C[C@@H]5C4)cc23)CCCO1 (stereo partly shown)")
"0.2 to 1 µM"
>>> value("CC1(C(=O)Nc2c[nH]c3ccc(OCCc4ccc(C(F)(F)F)cc4)cc23)CC1")
"0.04 to 0.2 µM"
>>> value("CC(=O)Nc1c[nH]c2ccc(CCOc3ccccc3C3(C)CCN(CC(F)(F)F)CC3)cc12")
"1 to 5 µM"
>>> value("CC1(F)CC(C(=O)Nc2c[nH]c3ccc(OCc4ccc(C(F)(F)F)cc4)cc23)C1 (stereo not shown)")
"0.2 to 1 µM"
>>> value("CC(=O)Nc1c[nH]c2ccc(OCCc3ccc(S(F)(F)(F)(F)F)cc3)cc12")
"0.04 to 0.2 µM"
>>> value("CC(=O)Nc1c[nH]c2ccc(OCC3(c4ccc(C(F)(F)F)cc4)CC3)cc12")
"1 to 5 µM"
>>> value("CC1OC(C)C1C(=O)Nc1c[nH]c2ccc(OCc3ccc(C(F)(F)F)cc3)cc12 (stereo not shown)")
"0.2 to 1 µM"
>>> value("O=C(Nc1c[nH]c2ccc(O[C@H]3C[C@H](c4ccc(C(F)(F)F)cc4)C3)cc12)C1CC1(F)F (stereo partly shown)")
"0.04 to 0.2 µM"
>>> value("CC(=O)Nc1c[nH]c2ccc(COCC3CCN(CC(F)(F)F)CC3)cc12")
"1 to 5 µM"
>>> value("CC(=O)Nc1c[nH]c2ccc(OCCC3CC4(C3)CN(CC(F)(F)F)C4)cc12")
"1 to 5 µM"
>>> value("CC(=O)Nc1c[nH]c2ccc(OCCc3ccc(C(F)(F)F)nc3)cc12")
"1 to 5 µM"
>>> value("CC1(C(=O)Nc2c[nH]c3ccc(O[C@H]4C[C@H](c5ccc(C(F)(F)F)cc5)C4)cc23)CCCO1 (stereo partly shown)")
"0.04 to 0.2 µM"
>>> value("CC(C)(C)OC(=O)N1CC(C(=O)Nc2c[nH]c3ccc(O[C@H]4C[C@H](c5ccc(C(F)(F)F)cc5)C4)cc23)C1")
"0.2 to 1 µM"
>>> value("CC(=O)Nc1c[nH]c2ccc(OCCC3CN(CC(F)(F)F)CC34CC4)cc12 (stereo not shown)")
"1 to 5 µM"
>>> value("O=C(Nc1c[nH]c2ccc(OCCc3ccc(C(F)(F)F)nc3)cc12)C1COC1")
"1 to 5 µM"
>>> value("COCC1(C(=O)Nc2c[nH]c3ccc(CCOc4ccc(C(F)(F)F)cc4)cc23)CC1")
"0.2 to 1 µM"
>>> value("CC(=O)Nc1c[nH]c2ccc(OCCC3CCCN(CC(F)(F)F)C3)cc12 (single isomer, unassigned) [Compound 279]")
"1 to 5 µM"
>>> value("CC(=O)Nc1c[nH]c2ccc(O[C@H]3C[C@@H](c4ccc(C(F)(F)F)nc4)C3)cc12")
"0.2 to 1 µM"
>>> value("CC1OC(C)C1C(=O)Nc1c[nH]c2ccc(OCCc3ccc(C(F)(F)F)cc3)cc12 (stereo not shown)")
"0.2 to 1 µM"

====

EC50 values, listed per item
molecular target: STING (Homo sapiens, UniProt Q86WV6, G230A/H232R/R293Q/R71H); experiment: STING reporter assay in THP1-Dual KO-IFNAR2 cells (2′3′cGAMP stimulation, luciferase reporter); type: cell-based; settings: 15 μM 2′3′cGAMP stimulation, 24 h, read-out: Pharmaron, THP1_IFNAR2 STING 24 h Luci Normalized: GeoMean EC50
property label: EC50

>>> value("CC1(C(=O)Nc2c[nH]c3ccc(O[C@H]4C[C@@H](c5ccc(C(F)(F)F)cc5)C4)cc23)CCNCC1")
"5000 to 100000 nM"
>>> value("CC(C)(O)CC(=O)Nc1c[nH]c2ccc(OCC[C@@H]3C[C@@H]4CN(CC(F)(F)F)C[C@@H]4C3)cc12")
"200 to 1000 nM"
>>> value("CC1(F)CC(C(=O)Nc2c[nH]c3ccc(OCCc4ccc(C(F)(F)F)cc4)cc23)C1 (stereo not shown)")
"40 to 200 nM"
>>> value("O=C(Nc1c[nH]c2ccc(OCCc3ccc(C(F)(F)F)nc3)cc12)C1CCC1")
"200 to 1000 nM"

====

biological target: STING (Homo sapiens, UniProt Q86WV6, G230A/H232R/R293Q/R71H); test: STING reporter assay in THP1-Dual KO-IFNAR2 cells (2′3′cGAMP stimulation, luciferase reporter); conditions: 15 μM 2′3′cGAMP stimulation, 24 h, read-out: Pharmaron, THP1_IFNAR2 STING 24 h Luci Normalized: GeoMean EC50
// EC50 lookup, one value per entry
property label: EC50

>>> value("O=C(Nc1c[nH]c2ccc(OCc3ccc(C(F)(F)F)cc3)cc12)[C@H]1C[C@@H](O)C1")
"200 to 1000 nM"
>>> value("C[C@]1(C(=O)Nc2c[nH]c3ccc(OCc4ccc(C(F)(F)F)cc4)cc23)C[C@H](O)C1")
"1000 to 5000 nM"
>>> value("CC(=O)Nc1c[nH]c2ccc(OCCC3CCN(c4ccc(C(F)(F)F)cn4)CC3)cc12")
"200 to 1000 nM"
>>> value("C[C@@H]1OC[C@H]1C(=O)Nc1c[nH]c2ccc(OCC[C@@H]3C[C@@H]4CN(CC(F)(F)F)C[C@@H]4C3)cc12")
"1000 to 5000 nM"
>>> value("O=C(Nc1c[nH]c2ccc(CCOc3ccc(C(F)(F)F)cc3)cc12)C1CC(CO)C1 (stereo not drawn)")
"40 to 200 nM"
>>> value("CC(=O)Nc1c[nH]c2ccc(O[C@H]3C[C@@H](c4ccc(C(F)(F)F)cc4)C3)cc12")
"40 to 200 nM"
>>> value("COCC1(C(=O)Nc2c[nH]c3ccc(O[C@H]4C[C@@H](c5ccc(C(F)(F)F)cc5)C4)cc23)CC1")
"1000 to 5000 nM"
>>> value("CC[C@@H](O)C(=O)Nc1c[nH]c2ccc(OCC[C@@H]3C[C@@H]4CN(CC(F)(F)F)C[C@@H]4C3)cc12")
"40 to 200 nM"
>>> value("CC(=O)Nc1c[nH]c2ccc(OCCC3(O)CCC(F)(F)CC3)cc12")
"5000 to 100000 nM"
>>> value("CC1(C(=O)Nc2c[nH]c3ccc(O[C@H]4C[C@@H](c5ccc(C(F)(F)F)cc5)C4)cc23)CCC1")
"200 to 1000 nM"
>>> value("O=C(Nc1c[nH]c2ccc(C(O)CCc3ccc(C(F)(F)F)cc3)cc12)C1CC1 (stereo not drawn)")
"200 to 1000 nM"
>>> value("CC(=O)Nc1c(Br)[nH]c2ccc(OCCc3ccc(C(F)(F)F)cc3)cc12")
"5000 to 100000 nM"
>>> value("CC(=O)Nc1c[nH]c2ccc(OCCc3cnn(C(F)F)c3)cc12")
"5000 to 100000 nM"
>>> value("O=C(Nc1c[nH]c2ccc(O[C@H]3C[C@@H](c4ccc(C(F)(F)F)nc4)C3)cc12)[C@H]1C[C@H](CO)C1")
"200 to 1000 nM"
>>> value("O=C(Nc1c[nH]c2ccc(O[C@H]3C[C@H](c4ccc(C(F)(F)F)cc4)C3)cc12)C1CCOCC1")
"40 to 200 nM"
>>> value("C=CCc1ccccc1OCCc1ccc2[nH]cc(NC(C)=O)c2c1")
"200 to 1000 nM"
>>> value("CC(=O)Nc1c[nH]c2ccc(CCOc3ccc(Cl)cc3C(F)(F)F)cc12")
"200 to 1000 nM"
>>> value("N#C[C@H]1C[C@@H]1C(=O)Nc1c[nH]c2ccc(OCC[C@@H]3C[C@@H]4CN(CC(F)(F)F)C[C@@H]4C3)cc12")
"1000 to 5000 nM"
>>> value("CC1(C(=O)Nc2c[nH]c3ccc(O[C@H]4C[C@H](c5ccc(C(F)(F)F)cc5)C4)cc23)CN(CC(F)F)C1")
"40 to 200 nM"
>>> value("O=C(Nc1c[nH]c2ccc(OCc3ccc(C(F)(F)F)cc3)cc12)C1CC1")
"200 to 1000 nM"
>>> value("O=C(Nc1c[nH]c2ccc(CCOc3ccc(C(F)(F)F)cc3)cc12)C1CN(CC(F)(F)F)C1")
"40 to 200 nM"
>>> value("CC(=O)Nc1c[nH]c2ccc(OCCc3cnc(N4CCN(CC(F)(F)F)CC4)c(F)c3)cc12")
"1000 to 5000 nM"
>>> value("O=C(Nc1c[nH]c2ccc(OCCc3ccc(C(F)(F)F)cc3)cc12)[C@H]1C[C@@H](CO)C1")
"40 to 200 nM"
>>> value("CC1(C(=O)Nc2c[nH]c3ccc(OCC[C@@H]4C[C@@H]5CN(CC(F)(F)F)C[C@@H]5C4)cc23)CC1")
"200 to 1000 nM"
>>> value("CC(=O)Nc1c[nH]c2cc(Br)c(OCCc3ccc(C(F)(F)F)cc3)cc12")
"5000 to 100000 nM"
>>> value("CC1(C(=O)Nc2c[nH]c3ccc(OCc4ccc(C(F)(F)F)cc4)cc23)CCCO1 (stereo not drawn)")
"200 to 1000 nM"
>>> value("O=C(Nc1c[nH]c2ccc(OCCc3ccc(C(F)(F)F)cc3)cc12)C1CC(Cl)C1 (stereo not drawn)")
"40 to 200 nM"
>>> value("CC(C)(C)CC(=O)Nc1c[nH]c2ccc(CCOc3ccc(C(F)(F)F)cc3)cc12")
"200 to 1000 nM"
>>> value("CC(=O)Nc1c[nH]c2ccc(O[C@@H]3C[C@H](c4ccc(C(F)(F)F)cc4)C3(C)C)cc12 (relative stereo)")
"1000 to 5000 nM"
>>> value("N#CC1(C(=O)Nc2c[nH]c3ccc(OCc4ccc(C(F)(F)F)cc4)cc23)CC1")
"200 to 1000 nM"

Value source: patent US12503436B2
